B1: HHH_rd2_0155 (parent)
chain: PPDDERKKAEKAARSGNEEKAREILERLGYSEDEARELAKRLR

Variants of: B1
ASSAY_DETAILS: folding stability dG (cDNA display proteolysis); higher = more stable
CONDITION_DETAILS: PBS, room temperature
Documented folding stability dG across a set of variants

| CHANGES | folding stability dG / kcal/mol |
| --- | --- |
| Y30W | 1.34 |
| A13Q | 0.906 |
| R43P | 0.532 |
| K20V | 2.05 |
| E23L | 2.19 |
| A39R | 0.796 |
| R36V | 1.26 |
| R36T | 1.31 |
| E32I | 1.88 |
| A21S | 1.23 |
| E19L | 2.15 |
| I24H | 1.11 |
